ASSAY_COMMENT: label from the status in PepcDB records

ENTRY_SEQUENCE: DARVQVMGIDAGGTMTDTFFVKENGSFVVGKAQSNPEDESLAIYNSSQDALSHWKSDVSKVYPELVTCVYSGTAMLNRVVQRRGMEVGLICNKGFEQMHSMGRALQSYLGYALEERLHINTHKYDDPLIPLKRIRGVTERTDVKGQVVIPVRQEEVKVAVKELLEAGAKAIVICLLQSHKNAESERIVRDIALKEIEKLGKN
protein production: failed

ENTRY_SEQUENCE: MMIDPELRPAFLPAGKLRAAINLGNPILAGTDAAGQAVGVSVDLAREFARRLNAGIELRVFDTAGQSVDAVTREEADIGFFAIDPARGAGIAFTGPYVLIEGAYLVRDDSPLQANEDVDRAGKRVTVGKGSAYDLHLTRALQHAEIVRAASSQAVVDTFLARRLDVAAGVKQQLQADARRVGGVRLLPGRFMVIRQAMGLPKARGDAAAACLDAFVESMKGNGFVAQALARHGLEHHHHHH
protein production: failed

###

ASSAY_COMMENT: label from the status in PepcDB records
QUANTITY_MEASURED: protein production

Field: example entries. Status: answers known.
ENTRY_SEQUENCE: MTKVNPYAAGARGLCPHCGEGYLFDGFLKVAPRCEACGFELGKHETGDGAATFVILIAGAICAFGALFSMFAWNWPVWVSLVVWLPAVVAISLGLMRPAKGLMVAAQIAQKASEAGRDHV
protein production: failed
//
ENTRY_SEQUENCE: MNNLFVYCEIEEGIVADVSLELLTKGRSLANELNCQLEAVVAGTGLKEIEKQILPYGVDKLHVFDAEGLYPYTSLPHTSILVNLFKEEQPQICLMGATVIGRDLGPRVSSALTSGLTADCTSLEIGDHEDKKEGKVYKNLLYQIRPAFGGNIVATIVNPEHRPQMATVREGVMKKEIVSPAYQGEVIRHDVKKYVADTDYVVKVIERH
protein production: not failed
//
ENTRY_SEQUENCE: MIFRQLFDPQSSTYTYLLADPASREALLIDPVFEQVRRDAALLDELGLRLVATVDTHVHADHVTGAWLLKQRTGSTIAISAASGAQGADRYLNDGDRCAFGARYLTVRATPGHTSGCISLVLDDESMAFTGDCLLIRGTGRTDFQQGDPRALYRAVHARLFTLPAACLLYPAHDYRGLTVTSVGEERRFNPRLGGDLSEDDFAGYMRNLGLAHPRQIDVAVPANLQCGVAANAPDALAAADWAPLVYTFAGFWEIDPQWLEDHLPAVQVVDVREPDEFAGPLGHLPGATPIPLGELAARTGELARDRPIVTVCRAGGRSAQATVILLKAGFDAVANLGGGMLRWRGEGRVVMDGRS
protein production: failed
//
ENTRY_SEQUENCE: MGEKPWQPLLQSFEKLSNCVQTHLSNFIGIKNTPPSSQSTIQNPIISLDSSPPIATNSSSLQKLPLKDKSTGPVTKEDLGRATWTFLHTLAAQMTILSRMYPCRECADHFKEILRSNPAQAGSQEEFSQWLCHVHNTVNRSLGKLVFPCERVDARWGKLECEQKSCDLHGTSMDF
protein production: failed
//
ENTRY_SEQUENCE: MDPWDTYNIPLDHQHRLRNRRDHRHPSFSSTLLDQIYRSIDDSSTNSSSMRKTKHQNREDTRVSANRRDDFNRSKNLKTIEPVFFKHSSSSSSDSSGFSSSESDYFYRRSKSSPAISHPKPIRTTVERFERSPQNHRPNSSNKQEHGSFLKTKSKALKIYSDLKKVKQPISPGGRLATFLNSIFTGAGNTKKLNKINTTVTSTTAAAAAASSTTTCSSASSFSRSCLSKTPSSSEKSKRSVRFCPVNVIFDEDSSKYNNKNNKVYGNNEREYESIRHTLENRVMEENRRVIEAAKELLRSYQKKNKEVIEVSVEDDEEDDDDDALSCTSSDLFELDNLSAIGIDRYREELPVYETTRLNTNRIISR
protein production: failed
//
ENTRY_SEQUENCE: KRQKIHLGDRSQKCSKCGIIFIRRSTLSRRKTPMCEKCRKDSCQEAALNKDEGNESGKKT
protein production: not failed
//
ENTRY_SEQUENCE: MKPPSAIMETALYADDLDAAEAFYRDVFGLEMVLKLPGQLVFFKCGRQMLLLFDPQESSRADANNPIPRHGAVGQGHFCFYADDKAEVDEWKTRFEALEIPVEHYHRWPNGSYSVYIRDPAGNSVEVGEGKLWGFE
protein production: not failed

Kindly review the next sequence as well.
# input Item under review: `VSDPLHVTFVCTGNICRSPMAEKMFAQQLRHRGLGDAVRVTSAGTGNWHVGSCADERAAGVLRAHGYPTDHRAAQVGTEHLAADLLVALDRNHARLLRQLGVEAARVRMLRSFDPRSGTHALDVEDPYYGDHSDFEEVFAVIESALPGLHDWVDERLARNGPS` . Reported protein production?
# output not failed
